target_entity: Sodium- and chloride-dependent glycine transporter 1 (Homo sapiens)
Sequence (P48067 whole entry): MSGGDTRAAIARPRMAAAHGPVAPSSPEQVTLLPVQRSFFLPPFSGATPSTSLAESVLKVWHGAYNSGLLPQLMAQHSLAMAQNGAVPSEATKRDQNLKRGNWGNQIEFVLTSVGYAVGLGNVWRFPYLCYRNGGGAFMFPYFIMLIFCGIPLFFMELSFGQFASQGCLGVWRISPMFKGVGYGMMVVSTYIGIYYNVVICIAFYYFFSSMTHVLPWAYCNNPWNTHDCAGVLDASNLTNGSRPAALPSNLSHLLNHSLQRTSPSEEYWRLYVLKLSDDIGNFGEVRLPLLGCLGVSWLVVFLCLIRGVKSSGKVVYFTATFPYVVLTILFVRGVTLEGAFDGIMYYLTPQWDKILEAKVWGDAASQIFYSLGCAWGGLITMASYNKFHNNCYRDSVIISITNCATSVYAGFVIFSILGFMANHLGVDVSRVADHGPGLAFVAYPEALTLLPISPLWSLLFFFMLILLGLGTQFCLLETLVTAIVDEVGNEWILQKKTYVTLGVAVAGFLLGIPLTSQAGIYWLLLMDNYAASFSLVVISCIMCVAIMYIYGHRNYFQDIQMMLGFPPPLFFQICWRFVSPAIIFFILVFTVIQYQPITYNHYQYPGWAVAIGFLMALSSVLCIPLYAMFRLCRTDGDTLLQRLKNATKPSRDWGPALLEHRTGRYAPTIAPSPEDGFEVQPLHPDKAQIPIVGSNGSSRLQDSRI
method_description: Inhibition of human glycine transporter 1
// boundary case: IC50 equal to 70 nM maps to FALSE; strictly smaller maps to TRUE

The examples below pair each entry with its known result.
CCCS(=O)(=O)N1CCC(CNC(=O)c2c(N)cccc2Cl)(c2ccccn2)CC1 | TRUE
CCCS(=O)(=O)N1CCC(c2ccccn2)([C@@H](C)NC(=O)c2cc(F)cc(F)c2Cl)CC1 | FALSE
CCCS(=O)(=O)N1CCC(CNC(=O)c2ccccc2Cl)(c2cccc(C)n2)CC1 | TRUE
CCCS(=O)(=O)N1CCC(c2ccccn2)([C@@H](C)NC(=O)c2ccc(Cl)cc2Cl)CC1 | FALSE
CCCS(=O)(=O)N1CCC(c2ccccn2)([C@H](C)NC(=O)c2ccc(Cl)cc2Cl)CC1 | TRUE

Does the reported IC50 of CCCS(=O)(=O)N1CCC(CNC(=O)c2ccccc2Cl)(c2cccc(OC)n2)CC1 stay below 70 nM?
TRUE

Please check: IC50 for CCCS(=O)(=O)N1CCC(CNC(=O)c2ccc(Cl)c(Cl)c2)(c2ccccn2)CC1 , strictly under 70 nM or not?
FALSE

For this molecule, is IC50 lower than 70 nM? CCCS(=O)(=O)N1CCC(CNC(=O)c2ccccc2)(c2ccccn2)CC1
FALSE

Please check: IC50 for CCCS(=O)(=O)N1CCC(CNC(=O)c2ccc(Cl)cc2Cl)(c2ccccn2)CC1 , strictly under 70 nM or not?
TRUE

Determine whether this molecule shows IC50 lower than 70 nM (ties excluded): CCCS(=O)(=O)N1CCC(CNC(=O)c2ccc(Cl)cc2Cl)(c2cccc(C)n2)CC1
TRUE

Does this molecule meet the criterion IC50 < 70 nM? CCCS(=O)(=O)N1CCC(CNC(=O)c2ccccc2OC(F)(F)F)(c2ccccn2)CC1
TRUE

# strict comparison: is reported IC50 < 70 nM? input = CCCS(=O)(=O)N1CCC(CNC(=O)c2ccc(Cl)cc2Cl)(c2ccncc2)CC1
FALSE

Find out if reported IC50 for CCCS(=O)(=O)N1CCC(CNC(=O)c2ccccc2Cl)(c2ccccn2)CC1 is less than 70 nM
TRUE

For this molecule, is IC50 lower than 70 nM? CCCS(=O)(=O)N1CCC(c2ccccn2)([C@@H](C)NC(=O)c2ccccc2OC(F)(F)F)CC1
FALSE

Consider the molecule CCCS(=O)(=O)N1CCC(CNC(=O)c2cccc(C)c2)(c2ccccn2)CC1 . Is its IC50 strictly less than 70 nM?
FALSE

Given CCCS(=O)(=O)N1CCC(CNC(=O)c2ccc(Cl)cc2Cl)(C2CCCCN2C)CC1 (centres undefined) , is recorded IC50 strictly lower than 70 nM?
TRUE

Identify whether the molecule CCCS(=O)(=O)N1CCC(CNC(=O)c2ccccc2Cl)(C2CCCCN2C)CC1 (centres undefined) records IC50 below 70 nM.
TRUE

Consider the molecule CCCS(=O)(=O)N1CCC(CNC(=O)c2ccccc2F)(c2ccccn2)CC1 . Is its IC50 strictly less than 70 nM?
TRUE

* * *

We begin with a simple list: items and their reported pIC50.
target_entity: Sodium- and chloride-dependent glycine transporter 1 (Homo sapiens)
method_description: Inhibition of glycine transporter 1 by HTS assay
Field pIC50 (float): negative decimal logarithm of the concentration in molar.

CCCS(=O)(=O)N1CCC(CNC(=O)c2ccccc2OC)(c2ccccc2)CC1 | 6.89

What value of measured pIC50 is listed for CCCS(=O)(=O)N1CCC(c2ccccc2)([C@H](C)NC(=O)c2c(N)cccc2Cl)CC1 ?
8.59
